B1: MMP1 (parent)
chain: YTPDLPRADVDHAIEKAFQLWSNV

Variants of: B1
assay.info: protein stability index of a GFP-peptide fusion (GPS, HEK-293T) (PSI 1-6); higher = more stable;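 also: lentivirally expressed fusions sorted by FACS into six bins by GFP to DsRed ratio, PSI derived from sequencing read proportions per bin multiplied by bin number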
condition.label: c terminus: a fixed tail appended
measured.endpoint: protein stability index

    variant_name  result
 0          S22K    2.03
 1           P3K    2.01
 2          N23R    2.01
 3          E15A    1.46
 4          A13D    1.71
 5          N23C    1.29
 6           P3T    1.84
 7           L5W    2.17
 8          A13Y    1.95
 9          W21N    3.36
10          D11W    1.73
11          N23S    2.28
12           A8I    1.88
13           D4Q    2.62
14          W21V    3.18
15          I14F    2.14
16           D4I    2.75
17          A17C    1.83
18          L20S    2.29
19           Y1R    2.97
20           D9C    1.75
21          A17E    1.84
22          Q19P    1.52
23          V24Q    2.14
24           R7C    2.01
25          D11Q    1.83
26          I14V    2.08
27          H12G    2.03
28          S22W    1.91
29          A13I    2.27
30          H12T    1.82
31          H12F     1.7
32          H12Q    1.69
33          W21S    3.25
34          N23D    1.86
35          A13C    1.93
36           L5E    2.16
37          E15R    2.73
38           R7L    1.42
39          Q19S     1.7
40           P6T    1.78
41           T2H    2.11
42          A13K     2.1
43          V24G    2.37
44           Y1W    2.32
45          I14Q     2.3
46           P6Y    1.47
47          L20Q    1.59
48          K16E    1.76
49          K16W    3.17
50          S22F    1.82
51           T2Q    1.74
52           Y1T    2.92
53          V24R    1.53
54           D4F    2.54
55          V10D    2.16
56          K16V    2.28
57          K16Y    3.76
58          L20G     1.9
59          W21H    3.42
60          D11F    2.12
61           P6W    2.06
62          A17D    1.97
63           Y1N    3.18
64          I14L    1.39
65           Y1K    3.32
66          I14H    1.62
67           P3D    3.37
68          L20W     1.1

Source: the supplement of paper PMC10567573
